biological target: mature HIV-1 protease bearing drug-resistance mutation L76V (PR_(L76V)) (HIV-1); test: ITC
quantityKind: Kd (nM)
Write it as a number; the unit nM goes unstated.

Q: Bench note: what Kd did RPB inhibitor (H-Arg-Val-Leu-(r)-Phe-Glu-Ala-Nle-NH2), substrate-analog inhibitor with a reduced peptide bond show?
Ans: 61
